Data origin: patent US20100022457A1

measurement_protocol: Dog pharmacokinetic study (intravenous and subcutaneous, 67 μg/kg)
Assay type: in vivo
run_conditions: male, beagle, plasma, sc, 67 ug/kg; dog, subcutaneous 67 μg/kg, Tables 6B/6C (Table I footnote: 0.2 M Tris buffer pH 8.0)
Where a SMILES comes first, the peptide text is derived from it. [ ]: non-standard residue; d: D form. The star is where a group is joined. ξ: configuration not given here. Ala(6-(2-MePh)pyridin-3-yl) = Cc1ccccc1-c1ccc(C[C@H](N)C(=O)O)cn1; Bip(2'-Et-4'-OMe) = CCc1cc(OC)ccc1-c1ccc(C[C@H](N)C(=O)O)cc1; Lactoyl(3-(imidazol-4-yl)) = O=C([C@@H](O)Cc1c[nH]cn1)*; ξαMePhe(2-F) = CC(N)(Cc1ccccc1F)C(=O)O; ξαMeP = CC1(C(=O)O)CCCN1

molecule	bioavailability
CCc1cc(OC)ccc1-c1ccc(C[C@H](NC(=O)[C@H](CC(=O)O)NC(=O)[C@H](Cc2c[nH]cn2)NC(=O)[C@@H](NC(=O)C(C)(Cc2ccccc2F)NC(=O)[C@@H](NC(=O)CNC(=O)[C@H](CCC(=O)O)NC(=O)C2(C)CCCN2C(=O)[C@@H](O)Cc2c[nH]cn2)[C@@H](C)O)[C@@H](C)O)C(=O)N[C@@H](Cc2ccc(-c3ccccc3C)nc2)C(N)=O)cc1 (stereo partly shown) [SEQ ID NO: 151] ({Lactoyl(3-(imidazol-4-yl))}-[ξαMeP]EGT[ξαMePhe(2-F)]THD[Bip(2'-Et-4'-OMe)][Ala(6-(2-MePh)pyridin-3-yl)]-NH2)	110%

* * *

measurement_protocol: Dog pharmacokinetic study (intravenous and subcutaneous, 67 μg/kg)
Assay type: in vivo
run_conditions: male, beagle, plasma, 67 ug/kg; dog, intravenous 67 μg/kg, Tables 6B/6C, vehicle not given
Where a SMILES comes first, the peptide text is derived from it. [ ]: non-standard residue; d: D form. The star is where a group is joined. ξ: configuration not given here. Ala(6-(2-MePh)pyridin-3-yl) = Cc1ccccc1-c1ccc(C[C@H](N)C(=O)O)cn1; Bip(2'-Et-4'-OMe) = CCc1cc(OC)ccc1-c1ccc(C[C@H](N)C(=O)O)cc1; Lactoyl(3-(imidazol-4-yl)) = O=C([C@@H](O)Cc1c[nH]cn1)*; ξαMePhe(2-F) = CC(N)(Cc1ccccc1F)C(=O)O; ξαMeP = CC1(C(=O)O)CCCN1
assay_readout: AUC

compound	assay_readout	result
CCc1cc(OC)ccc1-c1ccc(C[C@H](NC(=O)[C@H](CC(=O)O)NC(=O)[C@H](Cc2c[nH]cn2)NC(=O)[C@@H](NC(=O)C(C)(Cc2ccccc2F)NC(=O)[C@@H](NC(=O)CNC(=O)[C@H](CCC(=O)O)NC(=O)C2(C)CCCN2C(=O)[C@@H](O)Cc2c[nH]cn2)[C@@H](C)O)[C@@H](C)O)C(=O)N[C@@H](Cc2ccc(-c3ccccc3C)nc2)C(N)=O)cc1 (stereo partly shown) [SEQ ID NO: 151] ({Lactoyl(3-(imidazol-4-yl))}-[ξαMeP]EGT[ξαMePhe(2-F)]THD[Bip(2'-Et-4'-OMe)][Ala(6-(2-MePh)pyridin-3-yl)]-NH2)	AUC	1.52 µM·h

* * *

measurement_protocol: Dog pharmacokinetic study (intravenous and subcutaneous, 67 μg/kg)
Assay type: in vivo
run_conditions: male, beagle, plasma, sc, 67 ug/kg; dog, subcutaneous 67 μg/kg, Tables 6B/6C (Table I footnote: 0.2 M Tris buffer pH 8.0)
Where a SMILES comes first, the peptide text is derived from it. [ ]: non-standard residue; d: D form. The star is where a group is joined. ξ: configuration not given here. Ala(6-(2-MePh)pyridin-3-yl) = Cc1ccccc1-c1ccc(C[C@H](N)C(=O)O)cn1; Bip(2'-Et-4'-OMe) = CCc1cc(OC)ccc1-c1ccc(C[C@H](N)C(=O)O)cc1; Lactoyl(3-(imidazol-4-yl)) = O=C([C@@H](O)Cc1c[nH]cn1)*; ξαMePhe(2-F) = CC(N)(Cc1ccccc1F)C(=O)O; ξαMeP = CC1(C(=O)O)CCCN1

molecule	MRT / h
CCc1cc(OC)ccc1-c1ccc(C[C@H](NC(=O)[C@H](CC(=O)O)NC(=O)[C@H](Cc2c[nH]cn2)NC(=O)[C@@H](NC(=O)C(C)(Cc2ccccc2F)NC(=O)[C@@H](NC(=O)CNC(=O)[C@H](CCC(=O)O)NC(=O)C2(C)CCCN2C(=O)[C@@H](O)Cc2c[nH]cn2)[C@@H](C)O)[C@@H](C)O)C(=O)N[C@@H](Cc2ccc(-c3ccccc3C)nc2)C(N)=O)cc1 (stereo partly shown) [SEQ ID NO: 151] ({Lactoyl(3-(imidazol-4-yl))}-[ξαMeP]EGT[ξαMePhe(2-F)]THD[Bip(2'-Et-4'-OMe)][Ala(6-(2-MePh)pyridin-3-yl)]-NH2)	5.8

* * *

measurement_protocol: Dog pharmacokinetic study (intravenous and subcutaneous, 67 μg/kg)
Assay type: in vivo
run_conditions: male, beagle, plasma, sc, 67 ug/kg; dog, subcutaneous 67 μg/kg, Tables 6B/6C (Table I footnote: 0.2 M Tris buffer pH 8.0); read-out: t½ (converted)
Where a SMILES comes first, the peptide text is derived from it. [ ]: non-standard residue; d: D form. The star is where a group is joined. ξ: configuration not given here. Ala(6-(2-MePh)pyridin-3-yl) = Cc1ccccc1-c1ccc(C[C@H](N)C(=O)O)cn1; Bip(2'-Et-4'-OMe) = CCc1cc(OC)ccc1-c1ccc(C[C@H](N)C(=O)O)cc1; Lactoyl(3-(imidazol-4-yl)) = O=C([C@@H](O)Cc1c[nH]cn1)*; ξαMePhe(2-F) = CC(N)(Cc1ccccc1F)C(=O)O; ξαMeP = CC1(C(=O)O)CCCN1

molecule	unit_descriptor	half-life
CCc1cc(OC)ccc1-c1ccc(C[C@H](NC(=O)[C@H](CC(=O)O)NC(=O)[C@H](Cc2c[nH]cn2)NC(=O)[C@@H](NC(=O)C(C)(Cc2ccccc2F)NC(=O)[C@@H](NC(=O)CNC(=O)[C@H](CCC(=O)O)NC(=O)C2(C)CCCN2C(=O)[C@@H](O)Cc2c[nH]cn2)[C@@H](C)O)[C@@H](C)O)C(=O)N[C@@H](Cc2ccc(-c3ccccc3C)nc2)C(N)=O)cc1 (stereo partly shown) [SEQ ID NO: 151] ({Lactoyl(3-(imidazol-4-yl))}-[ξαMeP]EGT[ξαMePhe(2-F)]THD[Bip(2'-Et-4'-OMe)][Ala(6-(2-MePh)pyridin-3-yl)]-NH2)	h	4.4

* * *

measurement_protocol: Dog pharmacokinetic study (intravenous and subcutaneous, 67 μg/kg)
Assay type: in vivo
run_conditions: male, beagle, plasma, 67 ug/kg; dog, intravenous 67 μg/kg, Tables 6B/6C, vehicle not given; read-out: t½ (converted)
Where a SMILES comes first, the peptide text is derived from it. [ ]: non-standard residue; d: D form. The star is where a group is joined. ξ: configuration not given here. Ala(6-(2-MePh)pyridin-3-yl) = Cc1ccccc1-c1ccc(C[C@H](N)C(=O)O)cn1; Bip(2'-Et-4'-OMe) = CCc1cc(OC)ccc1-c1ccc(C[C@H](N)C(=O)O)cc1; Lactoyl(3-(imidazol-4-yl)) = O=C([C@@H](O)Cc1c[nH]cn1)*; ξαMePhe(2-F) = CC(N)(Cc1ccccc1F)C(=O)O; ξαMeP = CC1(C(=O)O)CCCN1
assay_readout: half-life (h)

compound	assay_readout	unit_descriptor	result
CCc1cc(OC)ccc1-c1ccc(C[C@H](NC(=O)[C@H](CC(=O)O)NC(=O)[C@H](Cc2c[nH]cn2)NC(=O)[C@@H](NC(=O)C(C)(Cc2ccccc2F)NC(=O)[C@@H](NC(=O)CNC(=O)[C@H](CCC(=O)O)NC(=O)C2(C)CCCN2C(=O)[C@@H](O)Cc2c[nH]cn2)[C@@H](C)O)[C@@H](C)O)C(=O)N[C@@H](Cc2ccc(-c3ccccc3C)nc2)C(N)=O)cc1 (stereo partly shown) [SEQ ID NO: 151] ({Lactoyl(3-(imidazol-4-yl))}-[ξαMeP]EGT[ξαMePhe(2-F)]THD[Bip(2'-Et-4'-OMe)][Ala(6-(2-MePh)pyridin-3-yl)]-NH2)	half-life	h	4

* * *

measurement_protocol: Dog pharmacokinetic study (intravenous and subcutaneous, 67 μg/kg)
Assay type: in vivo
run_conditions: male, beagle, plasma, 67 ug/kg; dog, intravenous 67 μg/kg, Tables 6B/6C, vehicle not given; read-out: Vss
Where a SMILES comes first, the peptide text is derived from it. [ ]: non-standard residue; d: D form. The star is where a group is joined. ξ: configuration not given here. Ala(6-(2-MePh)pyridin-3-yl) = Cc1ccccc1-c1ccc(C[C@H](N)C(=O)O)cn1; Bip(2'-Et-4'-OMe) = CCc1cc(OC)ccc1-c1ccc(C[C@H](N)C(=O)O)cc1; Lactoyl(3-(imidazol-4-yl)) = O=C([C@@H](O)Cc1c[nH]cn1)*; ξαMePhe(2-F) = CC(N)(Cc1ccccc1F)C(=O)O; ξαMeP = CC1(C(=O)O)CCCN1
assay_readout: Vd (L/kg)

compound	result
CCc1cc(OC)ccc1-c1ccc(C[C@H](NC(=O)[C@H](CC(=O)O)NC(=O)[C@H](Cc2c[nH]cn2)NC(=O)[C@@H](NC(=O)C(C)(Cc2ccccc2F)NC(=O)[C@@H](NC(=O)CNC(=O)[C@H](CCC(=O)O)NC(=O)C2(C)CCCN2C(=O)[C@@H](O)Cc2c[nH]cn2)[C@@H](C)O)[C@@H](C)O)C(=O)N[C@@H](Cc2ccc(-c3ccccc3C)nc2)C(N)=O)cc1 (stereo partly shown) [SEQ ID NO: 151] ({Lactoyl(3-(imidazol-4-yl))}-[ξαMeP]EGT[ξαMePhe(2-F)]THD[Bip(2'-Et-4'-OMe)][Ala(6-(2-MePh)pyridin-3-yl)]-NH2)	0.13
